- System: 616215-338-R-J1-PDC complex spheroid viability;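 further: spheroids exposed to agents for seven days before viability readout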
- Experiment summary: Anticancer human tumor 616215-338-R-J1-PDC patient-derived colon adenocarcinoma cell line growth inhibition [RAS]
- Particulars: curve of first compound; second compound 1 µM
pIC50: −log10 of the molar value.
Experimental endpoint: pIC50

Molecule: C=CC(=O)N1CCN(c2nc(OCC3CCCN3C)nc3c(F)c(-c4nc(N)cc(C)c4C(F)(F)F)c(Cl)cc23)C(C)C1 (stereo not drawn) + C#Cc1c(F)ccc2cc(O)cc(-c3ncc4c(N5CC6CCC(C5)N6)nc(OCC56CCCN5CC(F)C6)nc4c3F)c12
Target: 616215-338-R-J1-PDC complex spheroid viability;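 further: spheroids exposed to agents for seven days before viability readout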
Observed value: < 6.00

Measured pIC50, CC(C)n1nc(-c2ccc3oc(N)nc3c2)c2c(N)ncnc21 + C#Cc1c(F)ccc2cc(O)cc(-c3ncc4c(N5CC6CCC(C5)N6)nc(OCC56CCCN5CC(F)C6)nc4c3F)c12 : < 7.00

Measured pIC50, CC(=O)OC12COC1CC(O)C1(C)C(=O)C(O)C3=C(C)C(OC(=O)C(O)C(NC(=O)OC(C)(C)C)c4ccccc4)CC(O)(C(OC(=O)c4ccccc4)C21)C3(C)C (stereo not drawn) + C#Cc1c(F)ccc2cc(O)cc(-c3ncc4c(N5CC6CCC(C5)N6)nc(OCC56CCCN5CC(F)C6)nc4c3F)c12 : > 7.50
